# Tested on: MCF7
# method notes: Anticancer activity against human MCF7 cells by MTT assay
# Assay type: functional, cell-based
# test conditions: Homo sapiens, MCF7; read-out: IC50
quantity kind: log10 IC50 (log10 of the value in µM)

smiles repr: CC(=O)c1ccc(-n2cc(COc3ccc(/C=C/C(=O)c4cc5c(cc4O)OC(C)(C)CC5)cc3)nn2)cc1
system under test: MCF7
log10 IC50: 2.26

smiles repr: CCCCCn1cc(COc2ccc(/C=C/C(=O)c3ccc4c(c3O)CCC(C)(C)O4)cc2)nn1
system under test: MCF7
log10 IC50: 2.28

smiles repr: Cc1c(-n2cc(COc3ccc(/C=C/C(=O)c4ccc5c(c4O)CCC(C)(C)O5)cc3)nn2)cccc1[N+](=O)[O-]
system under test: MCF7
log10 IC50: 2.16

smiles repr: CC1(C)CCc2c(ccc(C(=O)/C=C/c3ccc(OCc4cn(Cc5ccc([N+](=O)[O-])cc5)nn4)cc3)c2O)O1
system under test: MCF7
log10 IC50: 1.23

smiles repr: CC(=O)c1ccc(-n2cc(COc3ccc(/C=C/C(=O)c4ccc5c(c4O)CCC(C)(C)O5)cc3)nn2)cc1
system under test: MCF7
log10 IC50: 2.23

smiles repr: Cc1c(-n2cc(COc3ccc(/C=C/C(=O)c4cc5c(cc4O)OC(C)(C)CC5)cc3)nn2)cccc1[N+](=O)[O-]
system under test: MCF7
log10 IC50: 2.25

smiles repr: COc1ccc(-n2cc(COc3ccc(/C=C/C(=O)c4ccc5c(c4O)CCC(C)(C)O5)cc3)nn2)c([N+](=O)[O-])c1
system under test: MCF7
log10 IC50: 1.86

====

# Test system: DU-145
# method notes: Anticancer activity against human DU145 cells by MTT assay
# Assay type: functional, cell-based
# test conditions: du-145

molecule: C[C@H]1O[C@H](O[C@H]2[C@H](O)[C@@H](O)[C@@H](O[C@H]3[C@H](O)[C@@H](O)C(O)O[C@@H]3CO)O[C@@H]2CO)[C@H](O)[C@@H](O)[C@@H]1N[C@H]1C=C(CO)[C@@H](O)[C@H](O)[C@H]1O (some centres not stated)
IC50: Not Active
//
molecule: CCCCCn1cc(COc2ccc(/C=C/C(=O)c3cc4c(cc3O)OC(C)(C)CC4)cc2)nn1
IC50: Not Active
//
molecule: CC(=O)c1ccc(-n2cc(COc3ccc(/C=C/C(=O)c4cc5c(cc4O)OC(C)(C)CC5)cc3)nn2)cc1
IC50: Not Active
//
molecule: CCCCCCCCn1cc(COc2ccc(/C=C/C(=O)c3cc4c(cc3O)OC(C)(C)CC4)cc2)nn1
IC50: Not Active
//
molecule: CCCCCCCCn1cc(COc2ccc(/C=C/C(=O)c3ccc4c(c3O)CCC(C)(C)O4)cc2)nn1
IC50: Not Active
//
molecule: Cc1ccc(-n2cc(COc3ccc(/C=C/C(=O)c4ccc5c(c4O)CCC(C)(C)O5)cc3)nn2)cc1Br
IC50: Not Active
//
molecule: CCCCCn1cc(COc2ccc(/C=C/C(=O)c3ccc4c(c3O)CCC(C)(C)O4)cc2)nn1
IC50: Not Active

====

# method notes: Inhibition of rat intestinal alpha-glucosidase using nitrophenyl-alpha-D-glucopyranoside by spectrophotometrically
# test conditions: read-out: IC50
quantity kind: IC50 (µM)

compound: CC1(C)CCc2c(ccc(C(=O)/C=C/c3ccc(OCc4cn(-c5ccc(Cl)cc5)nn4)cc3)c2O)O1
quantity kind: IC50
number: 128
//
compound: C[C@H]1O[C@H](O[C@H]2[C@H](O)[C@@H](O)[C@@H](O[C@H]3[C@H](O)[C@@H](O)C(O)O[C@@H]3CO)O[C@@H]2CO)[C@H](O)[C@@H](O)[C@@H]1N[C@H]1C=C(CO)[C@@H](O)[C@H](O)[C@H]1O (stereo not given in full)
quantity kind: IC50
number: 23.9
//
compound: CCc1ccccc1-n1cc(COc2ccc(/C=C/C(=O)c3ccc4c(c3O)CCC(C)(C)O4)cc2)nn1
quantity kind: IC50
number: 67.8
//
compound: CCCCCn1cc(COc2ccc(/C=C/C(=O)c3ccc4c(c3O)CCC(C)(C)O4)cc2)nn1
quantity kind: IC50
number: 102
//
compound: CCCCCn1cc(COc2ccc(/C=C/C(=O)c3cc4c(cc3O)OC(C)(C)CC4)cc2)nn1
quantity kind: IC50
number: 74.9

These measurements were taken from ChEMBL document CHEMBL3414566.
